target: T1, purified interference factor(s), Donor B; assay: SPR, interference factor immobilized
T1 construct: also called interference in serum from Donor B
Listed here: items and their measured % of binding of reference (=100%).
# unit: % | format: bare number

Below, 2 binders whose answers are already recorded.
{"binder": "SEQ ID NO: 70 (VHH, Ex. 8) VHH: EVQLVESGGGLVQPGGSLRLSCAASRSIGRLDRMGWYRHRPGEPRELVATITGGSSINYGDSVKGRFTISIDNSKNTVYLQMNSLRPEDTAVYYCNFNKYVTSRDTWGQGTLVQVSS", "% of binding of reference (=100%)": 105}
{"binder": "SEQ ID NO: 65 (VHH, Ex. 8) VHH: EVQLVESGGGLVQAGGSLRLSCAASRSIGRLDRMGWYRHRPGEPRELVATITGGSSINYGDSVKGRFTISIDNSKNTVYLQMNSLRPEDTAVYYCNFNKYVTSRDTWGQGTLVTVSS", "% of binding of reference (=100%)": 121}

--- query ---
### Prompt Please look up its % of binding of reference (=100%): SEQ ID NO: 38 (VHH, Ex. 8) EVQLVESGGGLVQPGGSLRLSCAASGFTFSSYAMSWVRQAPGKGLEWVSGIKSSGDSTRYAGSVKGRFTISRDNAKNTLYLQMNSLRPEDTAVYYCAKSRVSRTGLYTYDNRGQGTLVTVSSGGGGSGGGGSGGGGSGGGGSEVQLVESGGGLVQPGGSLRLSCAASGRTFNNYAMGWFRQAPGKEREFVAAITRSGVRSGVSAIYGDSVKDRFTISRDNAKNTLYLQMNSLRPEDTAVYYCAASAIGSGALRRFEYDYSGQGTLVTVSSA
### Response 25
